Value source: ChEMBL document CHEMBL1201862

system: SK-MEL-5; assay: NCI tumour cell line growth inhibition, 48 h
Activity calls are given as the source filed them. Rule as the data show it: active = GI50 up to about 1.1 µM and inactive = higher.
Choose one outcome from this list and give only that: Yes = active, No = inactive

Before answering, review these 5 worked examples.
INSERT INTO results (compound, category_label) VALUES
  ('N#Cc1nc(CN2C(=O)c3ccccc3C2=O)oc1N', 'No'),
  ('CC(C)=NNC(=S)NC12CC3CC(CC(C3)C1)C2', 'No'),
  ('Nc1nc(NCCO)c(N=O)c(=O)[nH]1', 'No'),
  ('CCOC(=O)C1=C(C)N(C2OC(COC(=O)c3ccccc3)C(OC(=O)c3ccccc3)C2OC(=O)c2ccccc2)C(=S)NC1c1ccccc1 (stereo not given)', 'No'),
  ('Cc1ccc(S(=O)(=O)c2c(N)c3nc4ccccc4n3c3nc4ccccc4nc23)cc1', 'No');

What did this assay record as the result for `CN(C)CCNc1ccc2c(=O)n(CCN(C)C)c(=O)n3c4ccc(O)cc4c(=O)c1c23` ?
Yes

What did this assay record as the result for `N#Cc1nc(-c2ccsc2)oc1N` ?
No

What did this assay record as the result for `CC1CC[P+](c2ccccc2)(c2ccccc2)CC1` ?
No

What did this assay record as the result for c1ccc2c(c1)CCC/C2=N\OCC1CO1 (stereo not given) ?
No

What did this assay record as the result for N=C(N)NCCCC(NC(=O)c1cccc2c(=O)c3ccccc3[nH]c12)C(=O)O (stereo not given) ?
No

* * *

test system: OVCAR-3; test: NCI tumour cell line growth inhibition, 48 h
The source made the active and inactive calls. Cut-off read from the data, not from the text of the source: active = GI50 up to about 1.1 µM and inactive = higher.
Below, each entry is listed with its recorded GI50.

Previously resolved entries follow.
INSERT INTO assay_data (compound, observed_result) VALUES
  ('CC(C)(C)[Si](C)(C)OCC1OC(n2cnc3c(N)ncnc32)C(O[Si](C)(C)C(C)(C)C)C1O[Si](C)(C)C(C)(C)C (stereo unspecified)', '2.87 µM (inactive)'),
  ('COc1ccc2c(c1)C(O)(C(F)(F)F)c1cc(C(=O)C(F)(F)F)c3ccccc3c1N2 (stereo unspecified)', '14.9 µM (inactive)'),
  ('CCOC(=O)C(=O)CC1=Nc2ccccc2SC(c2cccc(C)c2)C1 (stereo unspecified)', '19.5 µM (inactive)'),
  ('C=C1C(=O)OC2/C=C(/C)C(OC(C)=O)CC(O)/C(C)=C\C(OC(=O)/C(C)=C\C)C12 (stereo unspecified)', '46.6 µM (inactive)'),
  ('CCc1cccc(CC)c1Nc1nc(-c2ccccc2-c2ccccc2)cs1', '57.1 µM (inactive)');

Turning now to a further compound:
Form field GI50, entry COc1cc2[nH]c3c(c2cc1OC)CCN[C@]31CC[C@]2(CC3c4c(cc(OC)c(O)c42)CCN3C)C[C@H]1OC (stereo partly specified) : 21.2 µM (inactive)

* * *

system: NCI/ADR-RES; assay: NCI tumour cell line growth inhibition, 48 h
Activity calls are given as the source filed them. Cut-off read from the data, not from the text of the source: active = GI50 up to about 1.1 µM and inactive = higher.
Choose one outcome from this list and give only that: active, inactive

Before answering, review these 3 worked examples.
INSERT INTO measurements (compound, category_label) VALUES
  ('CC1OC2(CC(OCc3ccccc3)C1OCc1ccccc1)OCCO2 (stereo unspecified)', 'inactive'),
  ('O=C1N(CN2CCOCC2)CN(CN2CCOCC2)C(=O)N1Cc1ccc(-c2ccc(CN3C(=O)N(CN4CCOCC4)CN(CN4CCOCC4)C3=O)cc2)cc1', 'inactive'),
  ('Cc1ccc2ccc(O)cc2c1', 'inactive');

What did this assay record as the result for `O=[N+]([O-])C(C(Cl)=C(Cl)Cl)=C(n1cncn1)n1cncn1` ?
inactive

What did this assay record as the result for `N#CC1=C(C#N)/C(=C(\C#N)C(C#N)C#N)N=C1N` ?
inactive

What did this assay record as the result for `COC(=O)c1c(O)ccc2c1c1c(n2Cc2ccccc2OC)C(=O)c2ccccc2C1=O` ?
inactive

What did this assay record as the result for `Cc1cc(OC(=O)Nc2ccc(Cl)cc2)ccc1C(=S)Nc1ccccc1` ?
inactive

What did this assay record as the result for O=C1C2CC=CCC2C(=O)N1n1c(-c2ccccc2)n[nH]c1=O (stereo unspecified) ?
inactive

What did this assay record as the result for `Cc1cc2c(c(C(=O)NCC(=O)O)c1)Oc1c(cc(C)cc1C(=O)NCC(=O)O)S2` ?
inactive

What did this assay record as the result for `COc1cc2c3c(c1)c1cc(OC)c(OC)cc1c[n+]3CC2` ?
inactive

What did this assay record as the result for `O=c1[nH]c2cc3cccnc3c(Cl)c2nc1CBr` ?
inactive

What did this assay record as the result for CC(C)(C)[Si](C)(C)OCC1OC(n2cnc3c(N)ncnc32)C(O[Si](C)(C)C(C)(C)C)C1O[Si](C)(C)C(C)(C)C (stereo unspecified) ?
inactive

What did this assay record as the result for `COc1ccc(/C=C2\N=C(SC)N(C)C2=O)cc1` ?
inactive

What did this assay record as the result for O=C(CC(C(=O)c1cccs1)c1ccc2c(c1)OCO2)c1ccc(Br)cc1 (stereo unspecified) ?
inactive

What did this assay record as the result for `COc1cc2c(cc1OC)C(=O)N(c1ccc(OCCN3CCCC3)cc1)C2` ?
inactive

What did this assay record as the result for C=C1C(=O)OC2/C=C(/C)C(OC(C)=O)CC(O)/C(C)=C\C(OC(=O)/C(C)=C\C)C12 (stereo unspecified) ?
inactive

* * *

system: KM12; experiment: NCI tumour cell line growth inhibition, 48 h
Calls of active or inactive are those of the source. No stated cut-off is given here; in the data, active = GI50 up to about 1.1 µM and inactive = higher.
OBSERVED_PROPERTY: GI50

Previously resolved entries follow.
INSERT INTO measurements (compound, observed_property, observed_result) VALUES
  ('CN(C)c1ccc(/C=N/NC(=O)c2cnc3ccccc3c2)cc1', 'GI50', '38.5 µM (inactive)'),
  ('CC1C(c2ccc3c(c2)OCO3)c2cc3c(cc2OC1N1CCOCC1)OCO3 (centres undefined)', 'GI50', '20.5 µM (inactive)'),
  ('COc1cc2c(cc1OC)C(=O)N(c1ccc(OCCN3CCCC3)cc1)C2', 'GI50', '> 100 µM (inactive)');

Form field GI50, entry `N#CC1=C(C#N)/C(=C(\C#N)C(C#N)C#N)N=C1N` : 64.4 µM (inactive)

* * *

test system: Hs-578T; test: NCI tumour cell line growth inhibition, 48 h
The source made the active and inactive calls. Rule as the data show it: active = GI50 up to about 1.1 µM and inactive = higher. Where a SMILES comes first, the peptide text is derived from it. [ ]: non-standard residue; d: D form. The star is where a group is joined. Phe(2-OMe) = COc1ccccc1C[CH](N)C(=O)O; Cbz = O=C(OCc1ccccc1)*; OBn = c1ccc(CO*)cc1
Choose one outcome from this list and give only that: 1.0 for active, 0.0 for inactive

INSERT INTO assay_data (compound, target_under_test, category_label) VALUES
  ('COC(=O)C(Cc1ccccc1OC)NC(=O)C(CC(=O)OCc1ccccc1)NC(=O)OCc1ccccc1 (configuration not stated) (Cbz-Asp(OBn)-[Phe(2-OMe)]-OMe; configuration not given here)', 'Hs-578T', 0.0);

What did this assay record as the result for `NS(=O)(=O)c1nnc(NS(=O)(=O)c2ccccc2C(=O)O)s1` ?
0.0

What did this assay record as the result for `COc1cc2c(/C=C3/C(=O)Nc4ccc(O)cc43)c(Cl)n(Cc3ccccc3)c2cc1C` ?
1.0

What did this assay record as the result for `CN(C)CCNc1ccc2c(=O)n(CCN(C)C)c(=O)n3c4ccc(O)cc4c(=O)c1c23` ?
1.0

What did this assay record as the result for CC1OC2(CC(OCc3ccccc3)C1OCc1ccccc1)OCCO2 (configuration not stated) ?
0.0

What did this assay record as the result for `O=C(O)CCC(=O)C(=O)O` ?
0.0

* * *

system: UACC-257; assay: NCI tumour cell line growth inhibition, 48 h
Active and inactive are the calls of the source. Rule as the data show it: active = GI50 up to about 1.1 µM and inactive = higher.
OBSERVED_PROPERTY: GI50

INSERT INTO results (query_smiles, observed_property, observed_result) VALUES
  ('COc1ccc2nccc(NCCCN3CCN(CCCNc4ccnc5ccc(OC)cc45)CC3)c2c1', 'GI50', '1.04 µM (active)'),
  ('Cc1nc(-n2nc(-c3ccccc3)cc2-c2ccccc2)sc1C(/C=C\c1ccc([N+](=O)[O-])cc1)=N/NC(=S)NN', 'GI50', '> 42.1 µM (inactive)'),
  ('COc1ccc(CCNC(=O)[C@H]2CCCC[C@@H]2CCO)cc1OC', 'GI50', '> 100 µM (inactive)'),
  ('CCOC(=O)/C=C(/C(=O)OCC)n1ccc(=O)n(Cc2cn(CCCCOC(C)=O)nn2)c1=O', 'GI50', '> 100 µM (inactive)');

Turning now to a further compound:
Form field GI50, entry `COc1ccc(-n2c3c(c4cc(O)ccc42)Cc2ccccc2C3=O)cc1` : > 100 µM (inactive)

* * *

Below, each entry is listed with its recorded GI50.
tested on: SF-539; assay: NCI tumour cell line growth inhibition, 48 h
The source made the active and inactive calls. No stated cut-off is given here; in the data, active = GI50 up to about 1.1 µM and inactive = higher.

Previously resolved entries follow.
INSERT INTO assay_data (molecule, observed_result) VALUES
  ('CSc1cc(Cl)c(C)cc1S(=O)(=O)NC(=O)NNc1ccc(F)c(Cl)c1', '> 100 µM (inactive)'),
  ('CCCc1c(Cl)nc(Cl)nc1Cl', '2.54 µM (inactive)'),
  ('CCN(CC)CCCC(C)NC(=O)c1cc(-c2nccn2C)nc2ccc(C)cc12 (stereo not given)', '> 100 µM (inactive)'),
  ('O=C(c1cccs1)c1nccc2c1cnc1ccccc12', '> 100 µM (inactive)'),
  ('CC(C)CCCC(C)[C@H]1CCC2[C@@H]3CCC4Cc5nc6c(nc5C[C@]4(C)C3CC[C@@]21C)CC1CC[C@@H]2C(CC[C@@]3(C)C2CC[C@@H]3O)[C@@]1(C)C6 (stereo not given in full)', '> 100 µM (inactive)');

Form field GI50, entry `O=[N+]([O-])C(C(Cl)=C(Cl)Cl)=C(n1cncn1)n1cncn1` : 19 µM (inactive)

Form field GI50, entry `C[C@]12CCC(=O)C(O)=C1CC[C@@H]1[C@@H]2CC[C@]2(C)C(=O)CC[C@@H]12` : > 100 µM (inactive)

Form field GI50, entry COC(=O)C1=CCC2c3[nH]c4ccccc4c3CCN2C1 (stereo not given) : > 354 µM (inactive)

Form field GI50, entry `N#CC1=C(C#N)/C(=C(\C#N)C(C#N)C#N)N=C1N` : 22.4 µM (inactive)

Form field GI50, entry `CC(=O)C(C(=O)C(C)(C)C)C(=O)C(C)(C)C` : > 100 µM (inactive)
